Answer each item with its documented Papp.
Test Protocol: Apparent permeability of the compound in MDCK cells expressing human MDR1
Assay type: ADME, cell-based, Canis lupus familiaris
Conditions Used: dog
One number for each entry, in ×10⁻⁶ cm/s.

Past entries and their recorded results:
>  <Smiles Repr>
CC(C)(C)c1cccc(CN[C@H]2C[S@+]([O-])C[C@@H](Cc3cc(F)c(N)c(OC(C(F)(F)F)C(F)(F)F)c3)[C@@H]2O)c1

>  <Papp / ×10⁻⁶ cm/s>
18

$$$$
>  <Smiles Repr>
COC[C@@H](Oc1cc(C[C@@H]2C[S@@+]([O-])C[C@H](N[C@H](C)c3cccc(C(C)(C)C)c3)[C@H]2O)cc(F)c1N)C(F)(F)F

>  <Papp / ×10⁻⁶ cm/s>
17

$$$$
>  <Smiles Repr>
COC[C@@H](Oc1cc(C[C@@H]2C[S@@+]([O-])C[C@H](NCc3cccc(C(C)C)c3)[C@H]2O)cc(F)c1N)C(F)(F)F

>  <Papp / ×10⁻⁶ cm/s>
20

$$$$
>  <Smiles Repr>
COc1cc(C[C@@H]2C[S@@+]([O-])C[C@H](NCc3cccc(C(C)(C)C)c3)[C@H]2O)cc(F)c1N

>  <Papp / ×10⁻⁶ cm/s>
22

$$$$
>  <Smiles Repr>
COC[C@@H](Oc1cc(C[C@@H]2C[S@@+]([O-])C[C@H](NCc3cccc(OC(F)(F)F)c3)[C@H]2O)cc(F)c1N)C(F)(F)F

>  <Papp / ×10⁻⁶ cm/s>
31

$$$$
>  <Smiles Repr>
CC(C)(C)c1cccc(CN[C@H]2C[S@+]([O-])C[C@@H](Cc3cc(F)c(N)c(O[C@H](CO)C(F)(F)F)c3)[C@@H]2O)c1

>  <Papp / ×10⁻⁶ cm/s>
16

$$$$
>  <Smiles Repr>
CC(C)(C)c1cccc(CN[C@H]2C[S@@+]([O-])C[C@@H](Cc3cc(F)c(N)c(OC(C(F)(F)F)C(F)(F)F)c3)[C@@H]2O)c1

>  <Papp / ×10⁻⁶ cm/s>
11

$$$$
>  <Smiles Repr>
[2H]C([2H])(N[C@H]1C[S@+]([O-])C[C@@H](Cc2cc(F)c(N)c(O[C@H](COC)C(F)(F)F)c2)[C@@H]1O)c1cccc(C(C)(C)C)c1

>  <Papp / ×10⁻⁶ cm/s>
19

$$$$

Would you mind giving Papp for every compound in the list below?
1. COC[C@@H](Oc1cc(C[C@@H]2C[S@@+]([O-])C[C@H](NCc3cc(C(C)(C)C)ccc3F)[C@H]2O)cc(F)c1N)C(F)(F)F
2. COC[C@@H](Oc1cc(C[C@@H]2C[S@@+]([O-])C[C@H](NCc3cc(CC(C)(C)C)on3)[C@H]2O)cc(F)c1N)C(F)(F)F
3. COC[C@@H](Oc1cc(C[C@@H]2C[S@@+]([O-])C[C@H](NCc3cccc(C(C)(C)O)c3)[C@H]2O)cc(F)c1N)C(F)(F)F

*A*
1: 24; 2: 19; 3: 8

Hi! Can you tell me Papp for each of these compounds?
1. CC(C)(C)c1cccc(CN[C@H]2CS(=O)(=O)C[C@@H](Cc3cc(F)c(N)c(OC(C(F)(F)F)C(F)(F)F)c3)[C@@H]2O)c1
2. COC[C@@H](Oc1cc(C[C@@H]2C[S@@+]([O-])C[C@H](NCc3cccc(C(C)(C)C)c3)[C@H]2O)cc(F)c1N)C(F)(F)F

*A*
1. 4
2. 18

---

Test Protocol: Clearance in mouse liver microsomes
Type: ADME, Microsome
Conditions Used: read-out: CLH
Measured Quantity: microsomal CLint

Example compounds with recorded microsomal CLint:
>  <Compound>
COC[C@@H](Oc1cc(C[C@@H]2C[S+]([O-])C[C@H](N)[C@H]2O)cc(F)c1N)C(F)(F)F (some centres undefined)

>  <microsomal CLint>
180 µL/min/mg

$$$$
>  <Compound>
COC[C@@H](Oc1cc(C[C@@H]2C[S@@+]([O-])C[C@H](NCc3cccc(C(C)C)c3)[C@H]2O)cc(F)c1N)C(F)(F)F

>  <microsomal CLint>
550 µL/min/mg

$$$$
>  <Compound>
COC[C@@H](Oc1cc(C[C@@H]2C[S@@+]([O-])C[C@H](NCc3cccc(OC(C)C)c3)[C@H]2O)cc(F)c1N)C(F)(F)F

>  <microsomal CLint>
190 µL/min/mg

$$$$
>  <Compound>
[2H]C([2H])(N[C@H]1C[S@+]([O-])C[C@@H](Cc2cc(F)c(N)c(O[C@H](COC)C(F)(F)F)c2)[C@@H]1O)c1cccc(C(C)C)c1

>  <microsomal CLint>
660 µL/min/mg

$$$$
>  <Compound>
COC[C@@H](Oc1cc(C[C@@H]2C[S@@+]([O-])C[C@H](NCc3cccc(OC(F)(F)F)c3)[C@H]2O)cc(F)c1N)C(F)(F)F

>  <microsomal CLint>
180 µL/min/mg

$$$$

Working through the 2 compounds below one at a time, give microsomal CLint for each.
1. COC[C@@H](Oc1cc(C[C@@H]2C[S@@+]([O-])C[C@H](N[C@H](C)c3cccc(C(C)(C)C)c3)[C@H]2O)cc(F)c1N)C(F)(F)F
2. COC[C@@H](Oc1cc(C[C@@H]2C[S@@+]([O-])C[C@H](NCc3cccc(C(C)(C)O)c3)[C@H]2O)cc(F)c1N)C(F)(F)F

*A*
1. 730 µL/min/mg
2. 150 µL/min/mg

Would you mind listing microsomal CLint for each of the following compounds?
1. COC[C@@H](Oc1cc(C[C@@H]2C[S@@+]([O-])C[C@H](NCc3cnn(CC(C)(C)C)c3)[C@H]2O)cc(F)c1N)C(F)(F)F
2. COC[C@@H](Oc1cc(C[C@@H]2C[S@@+]([O-])C[C@H](NCc3cc(C(C)(C)C)ccc3F)[C@H]2O)cc(F)c1N)C(F)(F)F
3. COC[C@@H](Oc1cc(C[C@@H]2C[S@@+]([O-])C[C@H](NCc3cccc(C(C)(C)C)c3)[C@H]2O)cc(F)c1N)C(F)(F)F
4. COC[C@@H](Oc1cc(C[C@@H]2C[S@@+]([O-])C[C@H](NCc3cc(C(C)(C)C)ccn3)[C@H]2O)cc(F)c1N)C(F)(F)F
5. [2H]C([2H])(N[C@H]1C[S@+]([O-])C[C@@H](Cc2cc(F)c(N)c(O[C@H](COC)C(F)(F)F)c2)[C@@H]1O)c1cccc(C(C)(C)C)c1
6. COC[C@@H](Oc1cc(C[C@@H]2C[S@@+]([O-])C[C@H](NCc3cccc(C(C)(C)CO)c3)[C@H]2O)cc(F)c1N)C(F)(F)F

*A*
1: 380 µL/min/mg; 2: 580 µL/min/mg; 3: 480 µL/min/mg; 4: 400 µL/min/mg; 5: 530 µL/min/mg; 6: 210 µL/min/mg

Record summary for "COC[C@@H](Oc1cc(C[C@@H]2C[S@@+]([O-])C[C@H](NCc3cc(CC(C)(C)C)on3)[C@H]2O)cc(F)c1N)C(F)(F)F" : reported microsomal CLint = 510 µL/min/mg

---

Test Protocol: Drug level in APP51/16 transgenic male mouse blood at 180 umol/kg, po after 4 hrs
Assay type: ADME, organism-based
Conditions Used: whole blood, read-out: Drug uptake
Measured Quantity: concentration at 4 h

Some compounds with recorded concentration at 4 h:
>  <Smiles Repr>
COC[C@@H](Oc1cc(C[C@@H]2C[S@@+]([O-])C[C@H](NCc3cccc(C(C)(C)C)c3)[C@H]2O)cc(F)c1N)C(F)(F)F

>  <Measured Quantity>
concentration at 4 h

>  <Reported>
3.8 µM

$$$$
>  <Smiles Repr>
CC(C)(C)c1cccc(CN[C@H]2C[S@+]([O-])C[C@@H](Cc3cc(F)c(N)c(OCC(F)(F)F)c3)[C@@H]2O)c1

>  <Measured Quantity>
concentration at 4 h

>  <Reported>
6.1 µM

$$$$

// below: concentration at 4 h requested for another compound
GET /value?item= "CC(C)(C)c1cccc(CN[C@H]2C[S@+]([O-])C[C@@H](Cc3cc(F)c(N)c(OC(C(F)(F)F)C(F)(F)F)c3)[C@@H]2O)c1" &field=concentration at 4 h returns 0.9 µM

---

Test Protocol: Clearance in mouse
Type: ADME, organism-based
Conditions Used: in vivo
Measured Quantity: clearance (mL/min/kg)
Numbers only, in mL/min/kg.

// clearance value for "CC(C)(C)c1cccc(CN[C@H]2C[S@+]([O-])C[C@@H](Cc3cc(F)c(N)c(OC(C(F)(F)F)C(F)(F)F)c3)[C@@H]2O)c1" : 129

---

Test Protocol: Dissociation constant, pKa of the compound
Type: physicochemical
Kindly state pKa for each of the entries shown.
One number for each entry.

>  <Smiles Repr>
CC(C)(C)c1cccc(CN[C@H]2C[S@+]([O-])C[C@@H](Cc3cc(F)c(N)c(OC(C(F)(F)F)C(F)(F)F)c3)[C@@H]2O)c1

>  <pKa>
6.7

$$$$
>  <Smiles Repr>
CC(C)(C)c1cccc(CN[C@H]2CS(=O)(=O)C[C@@H](Cc3cc(F)c(N)c(OC(C(F)(F)F)C(F)(F)F)c3)[C@@H]2O)c1

>  <pKa>
5.7

$$$$

Please look at the following molecule next.
What the record says about "COC[C@@H](Oc1cc(C[C@@H]2C[S@@+]([O-])C[C@H](NCc3cc(CC(C)(C)C)on3)[C@H]2O)cc(F)c1N)C(F)(F)F" : pKa is 4.9
